Origin of values: patent US9856279B2

Biological target: IDH1 R132H (Homo sapiens, UniProt O75874, R132H)
Sequence (O75874 whole entry R132H): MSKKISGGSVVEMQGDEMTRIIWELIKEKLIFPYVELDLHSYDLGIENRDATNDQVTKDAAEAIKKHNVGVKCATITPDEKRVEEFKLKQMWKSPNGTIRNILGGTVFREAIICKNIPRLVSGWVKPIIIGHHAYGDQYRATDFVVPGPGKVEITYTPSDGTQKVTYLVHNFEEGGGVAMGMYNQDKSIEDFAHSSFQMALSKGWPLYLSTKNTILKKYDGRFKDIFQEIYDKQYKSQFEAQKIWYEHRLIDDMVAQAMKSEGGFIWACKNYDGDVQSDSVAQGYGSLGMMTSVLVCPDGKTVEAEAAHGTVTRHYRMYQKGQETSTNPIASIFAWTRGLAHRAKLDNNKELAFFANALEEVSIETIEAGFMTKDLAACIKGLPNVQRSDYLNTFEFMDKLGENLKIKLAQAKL
Test: Assay for IDH1 R132H inhibitors (NADPH/aKG, resazurin detection)
Format: biochemical
Conditions: enzyme assay of Example 12; read-out: IDH1R132H IC50
Procedure: Assays were conducted in a volume of 76 μl assay buffer (150 mM NaCl, 10 mM MgCl2, 20 mM Tris pH 7.5, 0.03% bovine serum albumin) as follows in a standard 384-well plate: To 25 ul of substrate mix (8 uM NADPH, 2 mM aKG), 1 μl of test compound was added in DMSO. […] The conversion of resazurin to resorufin was detected by fluorescent spectroscopy at Ex544 Em590 c/o 590.
measurement_label: IC50

compound | experimental_target | IC50
COCCC(=O)N1CCN(c2nc(C3CC3)c(-c3cccc(NC(=O)C(C)=O)c3)cc2C#N)C[C@H]1C | IDH1 R132H (Homo sapiens, UniProt O75874, R132H) | 500 to 1000 nM
N#Cc1ccc2c(-c3cc(C#N)c(N4CCN(C(=O)CC(F)(F)F)[C@H](C5CC5)C4)nc3C3CC3)cccc2n1 | IDH1 R132H (Homo sapiens, UniProt O75874, R132H) | < 500 nM
C=Cc1cc(-c2cc(C#N)c(N3CCN(C(=O)CC(C)O)[C@H](C4CC4)C3)nc2C2CC2)ccn1 (stereo partly shown) | IDH1 R132H (Homo sapiens, UniProt O75874, R132H) | < 500 nM
N#Cc1cc(-c2cccnc2)c(C2CC2)nc1N1CCN(C(=O)CC(F)(F)F)[C@H](C2CC2)C1 | IDH1 R132H (Homo sapiens, UniProt O75874, R132H) | < 500 nM
C[C@@H]1CN(c2nc(C3CC3)c(Nc3ccnc(Cl)c3)cc2C#N)CCN1C(=O)CCO | IDH1 R132H (Homo sapiens, UniProt O75874, R132H) | < 500 nM

**Query** IC50 lookup needed for C=Cc1nccc(-c2cc(C#N)c(N3CCN(C(=O)C4CC4)[C@H](C4CC4)C3)nc2C2CC2)c1F , thanks.
**Result** 500 to 1000 nM

**Query** Requested read-out: IC50. Entry: C#Cc1cc(-c2cc(C#N)c(N3CCN(C(=O)C4CC4)[C@H](C)C3)nc2C2CC2)ccn1
**Result** 500 to 1000 nM

**Query** Query (compound): C=C(CO)c1cc(-c2cc(C#N)c(N3CCN(C(=O)CCOC)[C@H](C)C3)nc2C2CC2)ccn1 ; field requested: IC50
**Result** < 500 nM

* * *

The following compounds are listed with their measured IC50 values.
biological target: IDH1 R132H (Homo sapiens, UniProt O75874, R132H); test: Assay for IDH1 R132H inhibitors (NADPH/aKG, resazurin detection); type: biochemical; settings: enzyme assay of Example 12; read-out: IDH1R132H IC50

Examples from the recorded data:
compound | result
C=Cc1cc(Nc2cc(C#N)c(N3CCN(C(=O)CCO)[C@H](C4CC4)C3)nc2C2CC2)c2ccncc2n1 | < 500 nM
C=Cc1cc(-c2cc(C#N)c(N3CCN(C(=O)COC)[C@H](C4CC4)C3)nc2C2CC2)c2ccncc2n1 | < 500 nM
C=Cc1cc(-c2cc(C#N)c(N3CCN(C(=O)CCC4CCCO4)[C@H](C4CC4)C3)nc2C2CC2)ccn1 (some centres unmarked) | < 500 nM
C=Cc1ccc2ccc(-c3cc(C#N)c(N4CCN(C(=O)CCO)[C@H](C5CC5)C4)nc3C3CC3)cc2n1 | < 500 nM
C=Cc1cc(Nc2cc(C#N)c(N3CCN(C(=O)CCO)[C@H](C)C3)nc2C2CC2)ccn1 | < 500 nM
C=CC(=O)Nc1cccc(C(C)Oc2cc(C#N)c(N3CCN(C(=O)CCOC)[C@H](C)C3)nc2C2CC2)c1 (some centres unmarked) | < 500 nM

**Query** # lookup: IC50 of C=Cc1ccc2c(-c3cc(C#N)c(N4CCN(C(=O)CCO)[C@H](C5CC5)C4)nc3C3CC3)cncc2n1
**Result** < 500 nM

**Query** What IC50 value was documented for this compound, C=Cc1cc(-c2c(C3CC3)nc(N3CCN(C(=O)CCC4CC4)[C@H](C4CC4)C3)c(C#N)c2C)ccn1 ?
**Result** < 500 nM

**Query** Fill blank: measured IC50 of the compound COCCC(=O)N1CCN(c2nc(C3CC3)c(Nc3ccnc(Cl)c3)cc2C#N)C[C@H]1C is ____.
**Result** < 500 nM

**Query** Consider the compound shown here: C=Cc1nc(-c2cc(C#N)c(N3CCN(C(=O)CCO)[C@H](C4CC4)C3)nc2C2CC2)c2ccccc2n1 What is its recorded IC50?
**Result** < 500 nM

**Query** Can you share its IC50? I mean this compound: CCS(=O)(=O)N1CCN(c2cc(C#N)c(N3CCN(C(=O)CC(F)(F)F)[C@H](C4CC4)C3)nc2C2CC2)CC1
**Result** < 500 nM

**Query** Given the compound COCCC(=O)N1CCN(c2nc(C3CC3)c(-c3ccc4ccccc4c3)c(C)c2C#N)C[C@H]1C , what is its reported IC50?
**Result** 500 to 1000 nM

**Query** Look up IC50: C=Cc1cc2c(-c3cc(C#N)c(N4CCN(C(=O)C5CC5)[C@H](C5CC5)C4)nc3C3CC3)cccc2cn1
**Result** < 500 nM

**Query** # get_value(readout='IC50', item= C[C@@H]1CN(c2nc(C3CC3)c(-c3ccnc(C#N)c3)cc2C#N)CCN1C(=O)C1CC1 )
**Result** 500 to 1000 nM

**Query** Could you tell me which IC50 is on file for COCCC(=O)N1CCN(c2nc(C3CC3)c(-c3ccnn3C)c(C)c2C#N)C[C@H]1C ?
**Result** 500 to 1000 nM

**Query** I'd like to know its IC50. The compound in question is N#Cc1cc(-c2cccc3nccnc23)c(C2CC2)nc1N1CCN(C(=O)CC(F)(F)F)[C@H](C2CC2)C1
**Result** < 500 nM

**Query** For C=Cc1cc(-c2cc(C#N)c(N3CCN(C(=O)COC)[C@H](C4CC4)C3)nc2C2CC2)ccn1 , what is its reported IC50?
**Result** < 500 nM

* * *

target: IDH1 R132H (Homo sapiens, UniProt O75874, R132H); assay: Assay for IDH1 R132H inhibitors (NADPH/aKG, resazurin detection); assay type: biochemical; conditions: enzyme assay of Example 12; read-out: IDH1R132H IC50
pIC50: −log10 of the molar value.
Item-by-item account of pIC50

// worked examples, pIC50 included
compound | experimental_target | result
C=Cc1cc(Nc2cc(C#N)c(N3CCN(C(=O)CCOC)[C@H](C)C3)nc2C2CC2)ccn1 | IDH1 R132H (Homo sapiens, UniProt O75874, R132H) | > 6.30
C=Cc1cc(-c2cc(C#N)c(N3CCN(C(=O)CCOC)[C@H](C4CC4)C3)nc2C2CC2)c2ccccc2n1 | IDH1 R132H (Homo sapiens, UniProt O75874, R132H) | > 6.30
COCCC(=O)N1CCN(c2nc(C3CC3)c(-c3ccc(-c4ccccc4)c(F)c3)c(C)c2C#N)C[C@H]1C | IDH1 R132H (Homo sapiens, UniProt O75874, R132H) | 6.00 to 6.30
COCCC(=O)N1CCN(c2nc(C3CC3)c(-c3ccc4cc(OC)ccc4c3)c(C)c2C#N)C[C@H]1C | IDH1 R132H (Homo sapiens, UniProt O75874, R132H) | 6.00 to 6.30
C=C(F)C(=O)N(C)c1cccc(-c2cc(C#N)c(N3CCN(C(=O)CCOC)[C@H](C)C3)nc2C2CC2)c1 | IDH1 R132H (Homo sapiens, UniProt O75874, R132H) | > 6.30
COCCC(=O)N1CCN(c2nc(C3CC3)c(-c3cccc(NC(=O)CCl)c3)cc2C#N)C[C@H]1C | IDH1 R132H (Homo sapiens, UniProt O75874, R132H) | > 6.30
C=Cc1cc(-c2cc(C#N)c(N3CCN(C(=O)COC)[C@H](C4CC4)C3)nc2C2CC2)cnn1 | IDH1 R132H (Homo sapiens, UniProt O75874, R132H) | > 6.30
COCCC(=O)N1CCN(c2nc(C3CC3)c(-c3ccc4nc(N)sc4c3)cc2C#N)C[C@H]1C | IDH1 R132H (Homo sapiens, UniProt O75874, R132H) | > 6.30
Cn1cc(-c2cc(C#N)c(N3CCN(C(=O)CC(F)(F)F)[C@H](C4CC4)C3)nc2C2CC2)c2ccccc2c1=O | IDH1 R132H (Homo sapiens, UniProt O75874, R132H) | > 6.30
C=Cc1cc(-c2cc(C#N)c(N3CCN(C(=O)C[C@H]4CCO4)[C@H](C)C3)nc2C2CC2)ccn1 | IDH1 R132H (Homo sapiens, UniProt O75874, R132H) | > 6.30

**Query** State the recorded pIC50 for this entry: COCCC(=O)N1CCN(c2nc(C3CC3)c(Nc3ccnc(Cl)c3)cc2C#N)C[C@H]1C1CC1
**Result** > 6.30

**Query** Field request: pIC50 | item: C=Cc1nc(-c2cc(C#N)c(N3CCN(C(=O)C4CC4)[C@H](C4CC4)C3)nc2C2CC2)c2ccccc2n1
**Result** > 6.30

**Query** Which pIC50 is listed for C=Cc1cc(-c2cc(C#N)c(N3CCN(C(=O)C[C@H]4CCO4)[C@H](C4CC4)C3)nc2C2CC2)c2cnn(C)c2n1 ?
**Result** > 6.30

**Query** I am curious: what pIC50 value has been reported for C=Cc1ncc2c(-c3cc(C#N)c(N4CCN(C(=O)CCOC)[C@H](C(C)C)C4)nc3C3CC3)cccc2n1 ?
**Result** > 6.30

**Query** Dear colleague, I am looking for the recorded pIC50 of the following compound: COCCC(=O)N1CCN(c2nc(C3CC3)c(-c3cnnc(OS(=O)(=O)C(F)(F)F)c3)cc2C#N)C[C@H]1C1CC1
**Result** > 6.30

**Query** Reported pIC50, compound C=Cc1cc(-c2c(C3CC3)nc(N3CCN(C(=O)CC4CCCO4)[C@H](C4CC4)C3)c(C#N)c2C)ccn1 (some centres unmarked) : ____
**Result** > 6.30

**Query** For C=Cc1cc(-c2cc(C#N)c(N3CCN(C(=O)C4CC4)[C@H](C4CC4)C3)nc2C2CC2)c2ccccc2n1 , what is its reported pIC50?
**Result** > 6.30

**Query** Consider the compound shown here: C=Cc1cc(-c2cc(C#N)c(N3CCN(C(=O)C[C@H]4CCCO4)[C@H](C4CC4)C3)nc2C2CC2)ccn1 What is its recorded pIC50?
**Result** > 6.30

**Query** Quick one: pIC50 for COCCC(=O)N1CCN(c2nc(C3CC3)c(-c3ccnn3C)cc2C#N)C[C@H]1C ?
**Result** 6.00 to 6.30

**Query** I have this compound here, C[C@@H]1CN(c2nc(C3CC3)c(-c3ccc4ncoc4c3)cc2C#N)CCN1C(=O)C1CC1 , and I need its recorded pIC50.
**Result** 6.00 to 6.30

**Query** Endpoint output: pIC50 of COCCC(=O)N1CCN(c2nc(C3CC3)c(-c3cccc(F)c3)c(C)c2C#N)C[C@H]1C . Value?
**Result** > 6.30

**Query** Tell me the measured pIC50 of Cc1cc(-c2cc(C#N)c(N3CCN(C(=O)C4CC4)[C@H](C4CC4)C3)nc2C2CC2)c2cccnc2n1 , please.
**Result** > 6.30

**Query** Using the record for C=CC(=O)N1CCC=C(c2cc(C#N)c(N3CCN(C(=O)C4CC4)[C@H](C)C3)nc2C2CC2)C1 , report its pIC50.
**Result** > 6.30
